Here, compounds appear alongside IC50 reported for Methionine aminopeptidase 2 (Homo sapiens) in the literature.

Illustrative cases are given below, each with its answer.
> print(dat)
                                   compound       measurement
1  O=C(NCc1ccco1)Nc1ccc2cccc(OC[C@H]3CCCN3c3ncnc4[nH]cnc34)c2c1  1000 to 10000 nM
2  CCN(Cc1ccccc1)C(=O)[C@@]1(O)CCN(c2ccccc2)C1=O        > 10000 nM
3  O=C(NCc1cc(F)cc(Cl)c1)[C@@]1(O)CCN(c2ccc3cc[nH]c3c2)C1=O     10 to 1000 nM

Request: Missing value: IC50, Methionine aminopeptidase 2 (Homo sapiens), entry O=C(NCc1cc(F)cc(Cl)c1)[C@]1(O)CCN(Cc2ccccc2)C1=O . Fill in?
Result: > 10000 nM

###

Here, molecules appear alongside IC50 reported for Methionine aminopeptidase 2 (Homo sapiens) in the literature.

Illustrative cases are given below, each with its answer.
> print(dat)
                                   molecule       measurement
1  COC(=O)N1CCc2cc(N3CCC(O)(C(=O)NCc4cc(F)cc(Cl)c4)C3=O)ccc21 (stereo not shown)     10 to 1000 nM
2   O=C(N1CCCCC1)[C@@]1(O)CCN(c2ccccc2)C1=O        > 10000 nM
3  O=C(NCc1cc(F)cc(Cl)c1)C1(O)CCN(c2cnn(C3CCNCC3)c2)C1=O (stereo not shown)     10 to 1000 nM
4  O=C(NCCc1cc(F)cc(Cl)c1)C1(O)CCN(c2ccc3[nH]ncc3c2)C1=O (stereo not shown)     10 to 1000 nM
5  O=C(OC[C@H]1CCCN1c1ccnc2ncnn12)c1ccc(F)cc1     10 to 1000 nM
6  CC(C)(C)OC(=O)N[C@@H](CCC(N)=O)C(=O)Nc1ccc2cccc(OC[C@H]3CCCN3c3ncnc4[nH]cnc34)c2c1  1000 to 10000 nM
7  O=C(c1ccno1)N1CCc2cccc(OC[C@H]3CCCN3c3ccnc4ncnn34)c2C1     10 to 1000 nM
8  O=C(NCc1cccnc1)[C@@]1(O)CCN(c2ccccc2)C1=O  1000 to 10000 nM

Request: Dear colleague, I am looking for the recorded IC50 of the following molecule: O=C(NCc1cccc(Cl)c1F)[C@@]1(O)CCN(c2cccc(Cl)c2)C1=O
Result: 10 to 1000 nM

Request: Ok, now c1ccc2c(OC[C@H]3CCCN3c3ccnc4ncnn34)nccc2c1
Result: 10 to 1000 nM

###

pIC50: −log10 of the molar value.
Here, compounds appear alongside pIC50 reported for Methionine aminopeptidase 2 (Homo sapiens) in the literature.

Request: Dear colleague, I am looking for the recorded pIC50 of the following compound: Nn1cnc2c(N3CCC[C@@H]3COc3cccc4ccccc34)ncnc21
Result: 5.00 to 6.00

Request: Ok, now CN(C)C(=O)c1cc2cc(N3CC[C@@](O)(C(=O)NCc4cc(F)cc(Cl)c4)C3=O)ccc2[nH]1
Result: < 5.00

Request: Ok, now O=C(NCc1cccc(Br)c1)[C@]1(O)CCN(c2ccc(F)c(Cl)c2)C1=O
Result: 5.00 to 6.00

Request: Ok, now c1cc(OC[C@H]2CCCN2c2ccnc3ncnn23)c2ccncc2c1
Result: 6.00 to 8.00

Request: Ok, now CC(=O)Nc1ccc(N2CCC(O)(C(=O)NCc3cccc(F)c3Cl)C2=O)cn1 (stereo not drawn)
Result: 6.00 to 8.00

Request: Ok, now Fc1cccc(COC[C@H]2CCCN2c2ccnc3ncnn23)c1
Result: 6.00 to 8.00

Request: Ok, now O=C(NCc1cc(F)cc(Cl)c1)C1(O)CCCN(Cc2ccccc2)C1 (stereo not drawn)
Result: 5.00 to 6.00
